All figures here come from paper PMC6416464.

- STUDY_SYSTEM: UniProt:P10632
- Sequence (P10632 whole entry): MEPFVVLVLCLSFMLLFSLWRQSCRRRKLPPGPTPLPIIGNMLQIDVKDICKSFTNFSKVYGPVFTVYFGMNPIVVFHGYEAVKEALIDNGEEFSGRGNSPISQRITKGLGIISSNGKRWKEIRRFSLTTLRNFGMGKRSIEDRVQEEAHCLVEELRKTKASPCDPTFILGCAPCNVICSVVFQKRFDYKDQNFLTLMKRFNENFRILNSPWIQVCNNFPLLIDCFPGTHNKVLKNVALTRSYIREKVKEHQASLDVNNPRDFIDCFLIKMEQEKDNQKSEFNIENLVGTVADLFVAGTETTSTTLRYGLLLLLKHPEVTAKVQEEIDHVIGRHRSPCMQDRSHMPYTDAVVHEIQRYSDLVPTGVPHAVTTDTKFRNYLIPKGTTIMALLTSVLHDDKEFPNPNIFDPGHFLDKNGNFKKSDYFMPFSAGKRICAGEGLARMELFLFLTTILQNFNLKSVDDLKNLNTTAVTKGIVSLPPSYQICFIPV
- METHOD_SUMMARY: Metabolic stability / reaction phenotyping with recombinant human CYP2C8
- CONDITION_NOTES: human, recombinant human CYP2C8, 1 µM, pH 7.4
Class true: Predicted Microsomal Clint, CYP2C8 at least 6 µL/min/mg Protein. Class false: Predicted Microsomal Clint, CYP2C8 below 6 µL/min/mg Protein.

compound="O=C1Cc2cc(CCN3CCN(c4nsc5ccccc45)CC3)c(Cl)cc2N1 [Ziprasidone, ziprasidone, reference compound]" class_label=false
compound="CNC(=O)O/N=C/C(C)(C)SC [Aldicarb, aldicarb]" class_label=false
compound="CCCSc1ccc2nc(NC(=O)OC)[nH]c2c1 [Albendazole, albendazole, reference compound]" class_label=false
compound="CC(C)(O)c1ccccc1CC[C@@H](SCC1(CC(=O)O)CC1)c1cccc(/C=C/c2ccc3ccc(Cl)cc3n2)c1 [Montelukast, montelukast, reference compound]" class_label=true

Attention now shifts to the item below.
Hi team, for CNC(=O)Oc1cc(C)c(SC)c(C)c1 [Methiocarb, methiocarb] , is the recorded Predicted Microsomal Clint, CYP2C8 at or above 6 µL/min/mg Protein? true
